target: Histone deacetylase 1 (Homo sapiens); test: Inhibition of FLAG-tagged HDAC1 expressed in human 293T cells
Sequence (Q13547 whole entry): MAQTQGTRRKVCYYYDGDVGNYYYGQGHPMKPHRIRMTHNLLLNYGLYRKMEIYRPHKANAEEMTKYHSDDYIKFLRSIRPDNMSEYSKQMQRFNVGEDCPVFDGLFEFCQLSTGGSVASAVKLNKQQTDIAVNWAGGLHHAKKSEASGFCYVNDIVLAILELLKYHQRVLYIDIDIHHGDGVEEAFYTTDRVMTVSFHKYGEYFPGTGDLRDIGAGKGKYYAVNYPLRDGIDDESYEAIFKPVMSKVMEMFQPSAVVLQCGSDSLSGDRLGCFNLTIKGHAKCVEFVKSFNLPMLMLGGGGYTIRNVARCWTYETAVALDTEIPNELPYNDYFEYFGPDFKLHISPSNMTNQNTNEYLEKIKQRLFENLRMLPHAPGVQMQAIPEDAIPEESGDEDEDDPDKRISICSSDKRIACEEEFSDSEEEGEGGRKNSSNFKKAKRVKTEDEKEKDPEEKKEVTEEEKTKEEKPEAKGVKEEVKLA
Non-standard residues stand in square brackets, D forms with d. Residues, ends and D or L forms follow the SMILES beside them. *: point of attachment. Asu = N[C@@H](CCCCCC(=O)O)C(=O)O; Aib = CC(C)(N)C(=O)O; NHOH = ON*
property name: pIC50
In textbook form, pIC50 equals minus log to base ten of the concentration in mol/L.

Consider the reported pIC50 for these compounds:
Exercise: Give its pIC50 value. Item: CC1(C)NC(=O)[C@H](CCCCCC(=O)NO)NC(=O)[C@H]2CCCN2C(=O)[C@H](Cc2ccccc2)NC1=O (cyclo([Aib]F[dP][Asu](NHOH)))
Solution: 9.40

Exercise: Give its pIC50 value. Item: `COC(=O)[C@H](Cc1ccc(-c2ccoc2)cc1)NC(=O)CCCCCCC(=O)NO`
Solution: 5.20

Exercise: Give its pIC50 value. Item: `COC(=O)[C@H](Cc1ccc(-c2ccc(-c3ccccc3)cc2)cc1)NC(=O)CCCCCCCC(=O)NO`
Solution: 4.42

Exercise: Give its pIC50 value. Item: `COC(=O)[C@H](Cc1ccc(-c2ccc3ccccc3c2)cc1)NC(=O)CCCCCCC(=O)NO`
Solution: 5.53

Exercise: Give its pIC50 value. Item: `COC(=O)[C@H](Cc1ccc(Br)cc1)NC(=O)CCCCCCC(=O)NO`
Solution: 4.64

Exercise: Give its pIC50 value. Item: `COC(=O)[C@H](Cc1ccc(-c2ccc(-c3ccccc3)cc2)cc1)NC(=O)CCCCCCC(=O)NO`
Solution: 6.02

Exercise: Give its pIC50 value. Item: `COC(=O)[C@H](Cc1ccc(Br)cc1)NC(=O)CCCCCCCC(=O)NO`
Solution: 4.55

Exercise: Give its pIC50 value. Item: `COC(=O)[C@H](Cc1ccc(-c2ccsc2)cc1)NC(=O)CCCCCCC(=O)NO`
Solution: 5.48

Exercise: Give its pIC50 value. Item: `COC(=O)[C@H](Cc1ccc(-c2ccco2)cc1)NC(=O)CCCCCCCC(=O)NO`
Solution: 5.01

Exercise: Give its pIC50 value. Item: `COC(=O)[C@H](Cc1ccc(-c2ccsc2)cc1)NC(=O)CCCCCCCC(=O)NO`
Solution: 4.72

More entries:
Exercise: Give its pIC50 value. Item: `COC(=O)[C@H](Cc1ccc(-c2cccs2)cc1)NC(=O)CCCCCCC(=O)NO`
Solution: 5.29

Exercise: Give its pIC50 value. Item: `COC(=O)[C@H](Cc1ccc(-c2ccc3ccccc3c2)cc1)NC(=O)CCCCCCCC(=O)NO`
Solution: 4.98

Exercise: Give its pIC50 value. Item: `COC(=O)[C@H](Cc1ccc(-c2ccco2)cc1)NC(=O)CCCCCCC(=O)NO`
Solution: 5.58

Exercise: Give its pIC50 value. Item: `COC(=O)[C@H](Cc1ccc(-c2ccccc2)cc1)NC(=O)CCCCCCCC(=O)NO`
Solution: 5.02

Exercise: Give its pIC50 value. Item: `COC(=O)[C@H](Cc1ccc(-c2ccoc2)cc1)NC(=O)CCCCCCCC(=O)NO`
Solution: 4.99

Exercise: Give its pIC50 value. Item: `COC(=O)[C@H](Cc1ccc(-c2ccccc2)cc1)NC(=O)CCCCCCC(=O)NO`
Solution: 5.91

Exercise: Give its pIC50 value. Item: `CN(C)c1ccc(C(=O)NCCCCCCC(=O)NO)cc1`
Solution: 5.53

Exercise: Give its pIC50 value. Item: `COC(=O)[C@H](Cc1ccc(-c2cccs2)cc1)NC(=O)CCCCCCCC(=O)NO`
Solution: 4.78
